target or system: Streptokinase A (Streptococcus pyogenes serotype M1)
Sequence (P10520 whole entry): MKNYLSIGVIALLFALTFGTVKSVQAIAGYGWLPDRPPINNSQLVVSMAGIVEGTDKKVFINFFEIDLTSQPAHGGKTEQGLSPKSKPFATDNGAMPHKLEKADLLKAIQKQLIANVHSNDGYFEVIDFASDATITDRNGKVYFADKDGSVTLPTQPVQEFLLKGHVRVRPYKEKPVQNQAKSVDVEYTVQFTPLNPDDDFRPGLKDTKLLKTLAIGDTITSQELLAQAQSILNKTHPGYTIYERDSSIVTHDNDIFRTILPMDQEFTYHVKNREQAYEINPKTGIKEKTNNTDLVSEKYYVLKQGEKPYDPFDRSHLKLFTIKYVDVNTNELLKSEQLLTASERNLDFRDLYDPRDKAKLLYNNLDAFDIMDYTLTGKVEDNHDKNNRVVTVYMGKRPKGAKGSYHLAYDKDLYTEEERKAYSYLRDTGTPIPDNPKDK
test details: S. pyogenes streptokinase expression inhibitors, potency, dose response, plasminogen activation absorbance, OD405 (AID 1914);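 note: secreted streptokinase activity via plasminogen activation per viability signal from cell pellet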
Format: functional, Streptococcus pyogenes M1 GAS
The source made the active and inactive calls. Cut-off read from the data, not from the text of the source: actives have a measured EC50 and inactives only a lower limit.
measured attribute: EC50

| compound | data value |
| --- | --- |
| COc1ccc(S(=O)(=O)Nc2cc3c4c(oc3c3ccccc23)CC(C)(C)CC4=O)cc1 | 97 µM (active) |
| CCc1ccc(NC2=NC(=O)/C(=C/c3cc(OC)c(O)c(OC)c3)S2)cc1 | > 150 µM (not active) |
| N#Cc1ccccc1CN1C(=O)S/C(=C/c2cccn2-c2ccc(C(=O)O)cc2)C1=O | > 150 µM (not active) |
| Oc1ccc2ccccc2c1/C=N/Nc1nnc(-c2ncc[nH]2)c2ccccc12 | 5.52 µM (active) |
| CCCCCCCCCCCCCCC[C@@H](O)[C@@H](N)CO [DIHYDROSPINGOSINE] | > 150 µM (not active) |
